system: HDF cells; assay: Summary of uses and toxic effects deduced from the cell assays (Table 1); assay type: cell-based, Human; details: Dose 10 µm; 24 hours
endpoint.name: Irritant

Solved entries (count: 4):
c1c2c(cc3c1OCO3)-c1cc3ccc4c(c3c[n+]1CC2)OCO4 ... Yes (↑IL-6, ↑IL-1β)
C[n+]1cc2c3c(ccc2c2ccc4cc5c(cc4c21)OCO5)OCO3 ... Yes (↑IL-6, ↑IL-1β)
CN1Cc2c(ccc3c2OCO3)[C@@H]2[C@H]1c1cc3c(cc1C[C@@H]2O)OCO3 ... Yes (↑IL-6, ↑IL-1β)
COc1ccc2c(c[n+](C)c3c4cc5c(cc4ccc23)OCO5)c1OC ... Yes (↑IL-6, ↑IL-1β)

Fill in the blank: the reported Irritant of COc1ccc2cc3[n+](cc2c1OC)CCc1cc2c(cc1-3)OCO2 is ____.
No

Quick one: c1cc2c(c3c1C[C@H]1c4cc5c(cc4CCN1C3)OCO5)OCO2
No

Measured values drawn from patent EP2787958B1 for this set.
